test system: P-388 leukemia; experiment: Antitumour activity, Test Example 1 (intraperitoneally transplanted--intraperitoneally administered); assay type: in vivo, BDF1 mouse; conditions: Mus musculus, P388, ip, 720 h, 50 mg/kg/day active ingredient, i.p., days 1 and 8; mortality observed 30 days; saline control = 0%; read-out: Increase life span (ILS)
Documented ILS at 50 mg/kg across a set of molecules
property_measured: ILS at 50 mg/kg (%)

* Cc1cc(NC(=O)NC(=O)c2ccccc2N(S(C)(=O)=O)S(C)(=O)=O)ccc1Oc1ncc(Br)cn1 [Compound 54] | 49
* CCCC(=O)Nc1ccccc1C(=O)NC(=O)Nc1ccc(Oc2ncc(Br)cn2)c(C)c1 [Compound 50] | 150
* CN(C)c1cccc(F)c1C(=O)NC(=O)Nc1ccc(Oc2ncc(Br)cn2)c(Cl)c1 [Compound 4] | 135
* Cc1cc(NC(=O)NC(=O)c2ccccc2N(C)C)ccc1Oc1ncc(Cl)cn1 [Compound 11] | 132
* CN(C)c1ccccc1C(=O)NC(=O)Nc1ccc(Oc2ncc(Br)cn2)c([N+](=O)[O-])c1 [Compound 13] | 27
* CCCCCCCCC(=O)Nc1ccccc1C(=O)NC(=O)Nc1ccc(Oc2ncc(Br)cn2)c(C)c1 [Compound 51] | 184

---

system: P-388 leukemia; experiment: Antitumour activity, Test Example 1 (intraperitoneally transplanted--intraperitoneally administered); format: in vivo, BDF1 mouse; conditions: Mus musculus, P388, ip, 720 h, 12.5 mg/kg/day active ingredient, i.p., days 1 and 8; mortality observed 30 days; saline control = 0%; read-out: Increase life span (ILS)
The label is criterion met for ILS at 12.5 mg/kg below 90% and criterion not met for ILS at 12.5 mg/kg equal to or exceeding 90%.

• CN(C)c1ccccc1C(=O)NC(=O)Nc1ccc(Oc2ncc(Cl)cn2)c(C(F)(F)F)c1 = criterion met
• CC(=O)Nc1ccccc1C(=O)NC(=O)Nc1ccc(Oc2ncc(Br)cn2)c(C)c1 = criterion met
• Cc1cc(NC(=O)NC(=O)c2c(F)cccc2N(C)C)ccc1Oc1ncc(Br)cn1 = criterion met
• Cc1cc(NC(=O)NC(=O)c2ccccc2N)ccc1Oc1ncc(Br)cn1 = criterion not met
• Nc1ccccc1C(=O)NC(=O)Nc1ccc(Oc2ncc(Br)cn2)c(Cl)c1 = criterion not met
• CC(=O)N(C)c1ccccc1C(=O)NC(=O)Nc1ccc(Oc2ncc(Br)cn2)c(C)c1 = criterion not met
• CN(C)c1ccccc1C(=O)NC(=O)Nc1ccc(Oc2ncc(Br)cn2)c(C(F)(F)F)c1 = criterion met
